# Tested on: southern armyworm (Spodopetra eridania Cramer)
# TEST SUMMARY: Mite/insect screen, SAW
# Type: in vivo
# TEST CONDITIONS: Spodoptera eridania, percent mortality; SAW, SM & MA RATE 400 PPM; read-out: SAW RESULTS %
Give mortality at 400 ppm for every item shown.
Respond with the bare value in %.

What value of mortality at 400 ppm has been recorded for this entry: Cc1ccc2nccc(NCCc3ccc(Cl)cc3Cl)c2c1
0

Now give it for CC(=O)N(CCc1ccc(C(C)(C)C)cc1)c1ccnc2c(F)cccc12 too.
0

Now give it for Clc1ccc(CCNc2ccnc3cc(Cl)ccc23)cc1 too.
0

Now give it for Cc1ccc(C)c2c(NCCc3ccc(Cl)cc3)ccnc12 too.
0

Now give it for Clc1ccc(CCNc2ccnc3cc(Cl)ccc23)c(Cl)c1 too.
0

Now give it for COc1ccc(CCNc2ccnc3cc(C(F)(F)F)ccc23)cc1 too.
0

Now give it for CC(=O)N(CCc1c(C)c(C)c(C)c(C)c1C)c1ccnc2c(F)cccc12 too.
0

Now give it for Cc1ccc2c(NCCc3ccccc3Oc3ccccc3)ccnc2c1C too.
0

Now give it for Fc1ccc(CCNc2ccnc3c(Cl)cccc23)cc1 too.
20

Now give it for COc1ccc(CCNc2ccnc3cc(C(F)(F)F)ccc23)cc1OC too.
0

Now give it for Fc1ccc2nccc(NCCc3ccc(Cl)cc3)c2c1 too.
80

---

# Test system: Twospotted spider mites (Tetranychus urticae Koch)
# TEST SUMMARY: Mite/insect screen, SM
# Format: in vivo
# TEST CONDITIONS: Tetranychus urticae, foliar, percent mortality; rate 200 ppm, foliar spray on squash; read-out: SM RESULTS %
VALUE TYPE: mortality at 200 ppm (%)
Respond with the bare value in %.

What value of mortality at 200 ppm has been recorded for this entry: CC(C)(CNc1ccnc2c(Cl)cccc12)c1ccccc1
0

Now give it for COC(C)CCOc1ccnc2c(F)cccc12 (centres unmarked) [Example 266, 8-fluoro-4-[3-methoxybutoxy]quinoline] too.
0

Now give it for Fc1cccc2c(OCCc3ccc(Cl)cc3)ccnc12 too.
0

Now give it for Cc1cc(C)c(CCOc2ccnc3c(F)cccc23)c(C)c1 too.
0

Now give it for CCOc1ccc2nc(C)cc(OCCCOCc3ccccc3)c2c1 too.
0

Now give it for Fc1cccc2c(OCCc3ccc(Br)cc3)ccnc12 too.
0

Now give it for FC(F)(F)c1ccc2c(NCCc3ccc4ccccc4c3)ccnc2c1 too.
0

Now give it for Fc1cccc2c(OCCCCCCCCOc3ccccc3)ccnc12 too.
40

Now give it for Clc1cccc2c(NCCc3cccs3)ccnc12 too.
0

Now give it for Fc1cccc2c(NCCc3ccccn3)ccnc12 too.
0

Now give it for Fc1cccc2c(OC3CCCCC3c3ccccc3)ccnc12 (centres unmarked) too.
0

Now give it for Clc1ccc(CCOc2ccnc3cc(Cl)ccc23)cc1 too.
0

Now give it for Fc1cccc2c(CCCc3cccc(C(F)(F)F)c3)ccnc12 too.
100

Now give it for CC(C)(C)c1ccc(CCOc2ccnc3cc(F)ccc23)cc1 too.
100

Now give it for Oc1ccc(CCNc2ccnc3c(F)cccc23)cc1 too.
0

Now give it for Fc1ccc(CCOc2ccnc3cc(Cl)ccc23)c(F)c1 too.
0

Now give it for CC(C)(C)c1ccc(CCCc2ccnc3c(F)cccc23)cc1 too.
100

Now give it for Fc1cccc2c(NCCc3c[nH]c4ccccc34)ccnc12 too.
0

Now give it for CC(C)(C)c1ccc(CCOc2ccnc3ccccc23)cc1 [Example 262, 4-[2-[4-(t-butyl)phenyl]ethoxy]quinoline] too.
100

Now give it for c1ccc(CCOc2ccnc3ccccc23)cc1 too.
10
